Recorded values, source patent US20230125429A1.

tested on: SNU-449; assay: Growth inhibitory effect, one hour exposure (IncuCyte Zoom); assay type: cell-based, human; settings: SNU-449, Hepatocellular carcinoma
pIC50: −log10 of the molar value.

| compound | pIC50 |
| --- | --- |
| CC(C)[C@]12O[C@H]1[C@@H]1O[C@@]13[C@@]1(C)CCC4=C(COC4=O)[C@@H]1C[C@@H]1O[C@@]13C2=O [Triptonide] | 5.31 |

====

tested on: DU-145; test: Growth inhibitory effect, one hour exposure (IncuCyte Zoom); assay type: cell-based, human; details: DU-145, Prostate
pIC50: −log10 of the molar value.

| compound | pIC50 |
| --- | --- |
| CC(C)[C@]12O[C@H]1[C@@H]1O[C@@]13[C@@]1(C)CCC4=C(COC4=O)[C@@H]1C[C@@H]1O[C@@]13C2=O [Triptonide] | 5.62 |

====

tested on: wild-type keratinocytes; assay: Growth of wild-type primary keratinocytes, short-term treatment; assay type: cell-based, mouse
pIC50: −log10 of the molar value.
observed.property: pIC50

| molecule | numeric.value |
| --- | --- |
| CC(C)[C@]12O[C@H]1[C@@H]1O[C@@]13[C@@]1(C)CCC4=C(COC4=O)[C@@H]1C[C@@H]1O[C@@]13C2=O [Triptonide] | 5.89 |

====

test system: MGC803; assay: Growth inhibitory effect, one hour exposure (IncuCyte Zoom); format: cell-based, human; conditions: MGC803, Gastric cancer
observed.property: IC50 (nM)

| molecule | observed.property | numeric.value |
| --- | --- | --- |
| CC(C)[C@]12O[C@H]1[C@@H]1O[C@@]13[C@@]1(C)CCC4=C(COC4=O)[C@@H]1C[C@@H]1O[C@@]13C2=O [Triptonide] | IC50 | 2580 |

====

tested on: OVCAR-3; experiment: Growth inhibitory effect, one hour exposure (IncuCyte Zoom); type: cell-based, human; conditions: OVCAR-3, Ovarian
pIC50: −log10 of the molar value.

| molecule | tested.target | pIC50 |
| --- | --- | --- |
| CC(C)[C@]12O[C@H]1[C@@H]1O[C@@]13[C@@]1(C)CCC4=C(COC4=O)[C@@H]1C[C@@H]1O[C@@]13C2=O [Triptonide] | OVCAR-3 | 5.31 |

====

system: Huh7; assay: Growth inhibitory effect, one hour exposure (IncuCyte Zoom); type: cell-based, human; conditions: Huh7, Hepatocelular carcinoma
pIC50: −log10 of the molar value.

| molecule | pIC50 |
| --- | --- |
| CC(C)[C@]12O[C@H]1[C@@H]1O[C@@]13[C@@]1(C)CCC4=C(COC4=O)[C@@H]1C[C@@H]1O[C@@]13C2=O [Triptonide] | 5.76 |

====

test system: HOP-62; experiment: Growth inhibitory effect, one hour exposure (IncuCyte Zoom); format: cell-based, human; conditions: HOP-62, Non-Small Cell Lung
pIC50: −log10 of the molar value.

| compound | pIC50 |
| --- | --- |
| CC(C)[C@]12O[C@H]1[C@@H]1O[C@@]13[C@@]1(C)CCC4=C(COC4=O)[C@@H]1C[C@@H]1O[C@@]13C2=O [Triptonide] | 5.03 |

====

tested on: SN12C; test: Growth inhibitory effect, one hour exposure (IncuCyte Zoom); format: cell-based, human; settings: Renal

| molecule | IC50 (nM) |
| --- | --- |
| CC(C)[C@]12O[C@H]1[C@@H]1O[C@@]13[C@@]1(C)CCC4=C(COC4=O)[C@@H]1C[C@@H]1O[C@@]13C2=O [Triptonide] | 1070 |

====

test system: PC-3; test: Growth inhibitory effect, one hour exposure (IncuCyte Zoom); assay type: cell-based, human; details: PC-3, Prostate
pIC50: −log10 of the molar value.
observed.property: pIC50

| compound | numeric.value |
| --- | --- |
| CC(C)[C@]12O[C@H]1[C@@H]1O[C@@]13[C@@]1(C)CCC4=C(COC4=O)[C@@H]1C[C@@H]1O[C@@]13C2=O [Triptonide] | 5.17 |

====

test system: SNB-19; test: Growth inhibitory effect, one hour exposure (IncuCyte Zoom); assay type: cell-based, human; conditions: SNB-19, CNS
observed.property: IC50 (µM)

| molecule | observed.property | units.symbol | numeric.value |
| --- | --- | --- | --- |
| CC(C)[C@]12O[C@H]1[C@@H]1O[C@@]13[C@@]1(C)CCC4=C(COC4=O)[C@@H]1C[C@@H]1O[C@@]13C2=O [Triptonide] | IC50 | µM | 51 |

====

system: OVCAR-8; test: Growth inhibitory effect, one hour exposure (IncuCyte Zoom); type: cell-based, human; details: OVCAR-8, Ovarian

| compound | IC50 (µM) |
| --- | --- |
| CC(C)[C@]12O[C@H]1[C@@H]1O[C@@]13[C@@]1(C)CCC4=C(COC4=O)[C@@H]1C[C@@H]1O[C@@]13C2=O [Triptonide] | 7.29 |

====

test system: SF-539; experiment: Growth inhibitory effect, one hour exposure (IncuCyte Zoom); type: cell-based, human; details: SF-539, CNS
pIC50: −log10 of the molar value.

| compound | tested.target | pIC50 |
| --- | --- | --- |
| CC(C)[C@]12O[C@H]1[C@@H]1O[C@@]13[C@@]1(C)CCC4=C(COC4=O)[C@@H]1C[C@@H]1O[C@@]13C2=O [Triptonide] | SF-539 | 5.94 |
